All figures here come from patent US20250163127A1.

# target-system: PD-L1 (human)
# Sequence (chain, as listed by the source): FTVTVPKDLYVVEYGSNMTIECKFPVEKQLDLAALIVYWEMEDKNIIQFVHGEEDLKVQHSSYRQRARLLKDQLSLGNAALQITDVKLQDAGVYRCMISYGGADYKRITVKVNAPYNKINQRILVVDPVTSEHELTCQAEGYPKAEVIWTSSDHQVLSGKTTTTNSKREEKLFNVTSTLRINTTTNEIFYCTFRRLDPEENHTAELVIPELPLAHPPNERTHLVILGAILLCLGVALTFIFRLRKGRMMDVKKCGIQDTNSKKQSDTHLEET
# protocol: flow cytometry, cells expressing PD-L1
measurement-name: MFI (MFI)
One number for each entry, in MFI.

| binder | unit | result |
| --- | --- | --- |
| variant CD80 L70Q/A91G/I118V/T120S/T130A/K169E (Fc fusion) VIHVTKEVKEVATLSCGHNVSVEELAQTRIYWQKEKKMVLTMMSGDMNIWPEYKNRTIFDITNNLSIVIQALRPSDEGTYECVVLKYEKDGFKREHLAEVTLSVKADFPTPSISDFEVPSSNIRRIICSASGGFPEPHLSWLENGEELNAINTTVSQDPETELYAVSSELDFNMTTNHSFMCLIKYGHLRVNQTFNWNTTKQEHFPDN | MFI | 6 |
| variant CD80 K36G/K37Q/M38I/L40M (Fc fusion) VIHVTKEVKEVATLSCGHNVSVEELAQTRIYWQKEGQIVMTMMSGDMNIWPEYKNRTIFDITNNLSIVILALRPSDEGTYECVVLKYEKDAFKREHLAEVTLSVKADFPTPSISDFEIPTSNIRRIICSTSGGFPEPHLSWLENGEELNAINTTVSQDPETELYAVSSKLDFNMTTNHSFMCLIKYGHLRVNQTFNWNTTKQEHFPDN | MFI | 959 |

stdin: What does the data say about its MFI? Entry: variant CD80 L70Q/A91G/T110A/I118V/T120S/T130A (Fc fusion) VIHVTKEVKEVATLSCGHNVSVEELAQTRIYWQKEKKMVLTMMSGDMNIWPEYKNRTIFDITNNLSIVIQALRPSDEGTYECVVLKYEKDGFKREHLAEVTLSVKADFPAPSISDFEVPSSNIRRIICSASGGFPEPHLSWLENGEELNAINTTVSQDPETELYAVSSKLDFNMTTNHSFMCLIKYGHLRVNQTFNWNTTKQEHFPDN
stdout: 5
